Below, each entry is listed alongside its reported protein stability index.
B1: MLL5 (parent)
chain: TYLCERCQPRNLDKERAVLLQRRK

Variants of: B1
Test: protein stability index of a GFP-peptide fusion (GPS, HEK-293T) (PSI 1-6); higher = more stable;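 note: lentivirally expressed fusions sorted by FACS into six bins by GFP to DsRed ratio, PSI derived from sequencing read proportions per bin multiplied by bin number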
Conditions: c terminus: a fixed tail appended
The response must contain the number and no unit.

Below, 8 variants whose answers are already recorded.
> print(dat)
   variant.designation  readout.number
1                 A17S            2.32
2                 N11T            3.08
3                 K14F            2.34
4                  P9I            1.91
5                  T1I            1.93
6                 V18Y            1.65
7                  Y2G            2.78
8                 K24L            2.17

Query string: So what's the measured protein stability index for this one? L19C
Result string: 2.03

Query string: So what's the measured protein stability index for this one? E5A
Result string: 1.91

Query string: So what's the measured protein stability index for this one? K24P
Result string: 2.38
